B1: TPR t1 (parent)
chain: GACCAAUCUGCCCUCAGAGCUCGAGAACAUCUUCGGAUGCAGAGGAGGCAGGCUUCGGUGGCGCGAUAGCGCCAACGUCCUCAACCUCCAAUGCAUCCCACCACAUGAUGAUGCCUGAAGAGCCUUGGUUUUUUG

- Variants of: B1
- measurement notes: polymerase ribozyme fitness, log enrichment relative to wild type (log ratio); higher = more active; in vitro selection for triplet polymerase activity
Grouping key: polymerase ribozyme fitness (log ratio). Bins: class 1: < -4; class 2: ≥ -4 and < -1; class 3: ≥ -1

Ask | Which category fits this record: GACCAAUCUGCCCUCAGAGCUCGAGAACAUCUUCGGAUGCAGAGGAGGCAGGCUUCGGUGGCGCGAUAGCGCCAACGUCCUUAACCUCCAAUGCAUCCCACCACAUGUUGAUGCCUGAAGGGCCUUGGUUUUUUG [C82U A108U A121G]
Reply | class 1

Ask | Classify this variant: GACCAAUCUGCCCUCAGAGCUCGAGAACAUCUUCGGAUGCAGAGGAGGGAGGCUUCGGUGGCGCGAUAGCGCCAACGUCCUCAAGCUCCAAUGCAUCCCACCACAUGAUGAUGCCGGAAGAGCCUUGGUUUUUUG [C49G C85G U116G]
Reply | class 2

Ask | Band assignment needed for GACCAAUAUGCCCUCAGAGCUCGAGAACAUCUUCGGAUGCAGAGGACGCAGGCUUGGGUGGCGCGAUAGCGCCAACGUCCUUAACCACCAAUGCAUCCCAUCACAUUAUGAUGCUUGCAGAGCCUUGGUUUUUUG [C8A G47C C56G C82U U87A C101U G107U C115U A118C] please.
Reply | class 1

Ask | Which category fits this record: GACCAAUCUGCCCUCAGAGCUCGAGAACAUCUUCGGAUGCAGAGGAGGCAGGCUUCGGUGUCGCGAUAGCGCCAACGUCCUCAACCUCCAAUGCAUCCCACCACAUGAUGAUGCCUUAAGAGCCUUGGUUUUUUG [G61U G117U]
Reply | class 2

Ask | Returns: class label. Input: GACCAAUCUGCCCUCAGAGCUCGAGAACAUCUUCGGAUGCAGAGGAGGCAGGCUUCGGUGGCGCGAUAGCGCCAACGUCCUCAACCUCCAAUGCAUCCCCCCACAUGAUGAGGCCUGAAGAGCCUUGGUUUUUUG [A100C U112G]
Reply | class 3

Ask | Bin this entry: GACCAAUCUGCCCUCAGAGCUCGAGAACCUCUUCGGCUGCAGAGGAGGCAGGCUUCGGUGGCGCGAUAGCGCCAACGUCCUCAACCUCCAAUGUAUCCCACCACAUGAUGAUGCCUGAACAGCCUUGGUUUUUUG [A29C A37C C94U G120C]
Reply | class 1

Ask | Class? Entry: GACCAAUCUGCCCUCAGAGCUCGAGAACAUCUUCGGAUGCAGAGGAGGCAGGCUUCGGUGGCGUGAUAGCGCCAACGUCCUCAACCUCCAAUGCAUCCCACCACAUGAUGAUGCCUGAAAAGCCUUGGUUUUUUG [C64U G120A]
Reply | class 3

Ask | Field: class (polymerase ribozyme fitness (log ratio)) — entry: GACCAAUCUGCCCUCAGAGCUCGAGAAGAUCUUCGGAUGCCGAGGAGGCAGGCUUCGGUGGCGCGAUAGCGCCAACGUCCUCAACCUCCAAUGCAUCCCACCACAUGAUGAUGCCUGAAGAGCCUUGGUUUUUUG [C28G A41C]
Reply | class 1

More entries:
Ask | Which category fits this record: GACCAAUCUGCCCUCAGAGCUCGAGAACAUCUUCGGAUUCAGACGAGGCAGGCUUCGGUGGCGCGAUAGCGUCAACGUCCUCAACCUCCAAUGCAUCCCACCACAUGAUGAUGCCUGAAGAGCCUUGGUUUUUUG [G39U G44C C72U]
Reply | class 2

Ask | For the record GACCAAUCUGCCCUCAGAGCUCGAGAACAUCUUCGGAUGCAGAGGAGGCAGGCUUCGGUGGCGCGAUAGCGCCAACGUCCUCAACCUCCUAUGCAUCCCACCACAAGAUGUUGCCUGAAGAGCCUUGGUUUUUUG [A90U U106A A111U] , report the class its polymerase ribozyme fitness (log ratio) corresponds to.
Reply | class 2

Ask | Hi there! Could you help me figure out the category for GACCAAUCUGCCCUCAGAGCUCGAGAACAUCUUCGGAUGCAGAUGAGGCAGGCUUCGGUGGCGCGAUAGCGCCAACGUCCUCAACCUCCAAUGCAUCCCACCACAUGAUGAUGCCUGAAGGGCCUUGGUUUUUUG [G44U A121G] please?
Reply | class 3

Ask | Please classify: GACCAAUCUGCCCUCAGAGCUCGAGAACAUCUUCGGAUGCAGAGGAGGCAGGCUUCGGUGGCGCGAUAGCGCGAACGUCCUCAACCACCAAUGCAUCCCACCACAUGAUGAUGCCUGAAGAACCUUGGUUUUUUG [C73G U87A G122A]
Reply | class 1

Ask | Returns: class label. Input: GACCAAUCUGCCCUCAGAGCUCGAGAACAUCUUCGCAUGCAGAGGAGGCAGGCUUCGGUGGCGCGAUAGCGGCAACGUCCUCAACCUCCAAUGCAUCCCACAACAUGAUGAUGCCUGAAGAGCCUUGGUUUUUUG [G36C C72G C102A]
Reply | class 1

Ask | Category of GACCAAUCUGCCCUCAGAGCUCGAGAACAUCUUCGGAUGCAGAGGAGGCAGGCUUCGGUGGCACGAUAGCGCCAACGUCCUCAACCUCCAAUGCAUCCCACCACAUGAUGAUGCCUGAAGAGCCUUGGGUUUUUG [G63A U129G] :
Reply | class 3

Ask | Hi there! Could you help me figure out the category for GGCCAAUCUGCCCUCAGAGCUCGAGAACAUCUUCGGAUGCAGAGGAGGCAGGCUUCGGUGGCGUGAUAGCGCCAACGUCCUCAACCUCGAAUGCAUCCCACCACAUGAUGAAGCCUGAAGAGCCUUGGUUUUUUG [A2G C64U C89G U112A] please?
Reply | class 2
